- study_system: HDAC1 (Homo sapiens (Human))
- Sequence (Q13547 whole entry): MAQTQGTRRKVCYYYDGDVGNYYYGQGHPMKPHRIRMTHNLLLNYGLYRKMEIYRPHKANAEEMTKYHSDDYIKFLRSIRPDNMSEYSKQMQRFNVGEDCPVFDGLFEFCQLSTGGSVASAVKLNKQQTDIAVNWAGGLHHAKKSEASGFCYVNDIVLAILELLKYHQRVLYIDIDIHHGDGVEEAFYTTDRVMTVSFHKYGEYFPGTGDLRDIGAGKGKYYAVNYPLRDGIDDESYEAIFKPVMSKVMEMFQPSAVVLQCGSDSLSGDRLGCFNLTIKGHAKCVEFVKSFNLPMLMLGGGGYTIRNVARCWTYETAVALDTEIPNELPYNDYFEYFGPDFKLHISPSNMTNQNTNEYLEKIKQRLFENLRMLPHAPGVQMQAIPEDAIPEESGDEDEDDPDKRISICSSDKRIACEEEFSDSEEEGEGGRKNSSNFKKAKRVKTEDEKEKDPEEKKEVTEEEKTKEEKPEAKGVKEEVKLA
Decision: IC50 beneath 1000 nM gives satisfied; IC50 meeting or exceeding 1000 nM gives not satisfied.

Record excerpt, results attached:
In [3]: df
Out[3]:
                                   molecule                  study_system  classification
0  Cc1nc(COc2cc(-c3noc(C(F)(F)F)n3)ccn2)no1 [Example 225]  HDAC1 (Homo sapiens (Human))   not satisfied
1  O=C(C1CCS(=O)(=O)CC1)N(Cc1ccc(-c2noc(C(F)(F)F)n2)cn1)c1cccc(C(F)(F)F)c1 [Example 456]  HDAC1 (Homo sapiens (Human))       satisfied

Asked: Is IC50 strictly under 1000 nM for the entry O=C1OC[C@@H](c2ccccc2)N1c1ccc(-c2noc(C(F)(F)F)n2)c(F)c1 [Example 332] ?
Given back: not satisfied

Asked: Criterion: IC50 strictly below 1000 nM. Is it met by Fc1ccccc1C1COCCN1c1ccc(-c2noc(C(F)(F)F)n2)cn1 (racemic) [Example 135] ?
Given back: satisfied

Asked: Hi there! Is IC50 for CN(C)C(=O)c1cccc(NCc2ccc(-c3noc(C(F)(F)F)n3)cn2)c1 [Example 438] below 1000 nM, do you know?
Given back: satisfied

Asked: Does the reported IC50 of O=C(CCn1cncn1)N(Cc1ccc(-c2noc(C(F)(F)F)n2)cc1)c1cccc(C(F)(F)F)c1 [Example 89] stay below 1000 nM?
Given back: not satisfied

Asked: Bench note: check whether CC1(Cc2ccc(-c3noc(C(F)(F)F)n3)cc2)C(=O)Nc2ccc(F)cc21 (racemic) [Example 346] shows IC50 below 1000 nM
Given back: not satisfied
